Entry source: PubChem BioAssay (NCI)

Test system: TK-10 renal
PROCEDURE DETAILS: NCI-60 one-dose screen, 48 h (100 = growth as untreated, 0 = no growth, -100 = all killed)
DETAILS: 10 µM unless noted
Compounds without any hit were thinned out: in the full panel of roughly 83,000, 20% have a hit. Calls of active or inactive are those of the source. Rule for the calls: active = growth percent below 10; inactive = the rest.
RESULT TYPE: growth

{"columns": ["MOLECULE", "RESULT TYPE", "MEASURED"],
 "data": [
  ["COc1ccc2c(c1)CC/C(=C\\c1cncc(Br)c1)C2=O", "growth", "85% (inactive)"],
  ["COc1ccc(C2CC(c3ccc(Cl)cc3)=NN2/C=C2\\SC(=S)N(NC(=O)Cc3ccccc3Nc3c(Cl)cccc3Cl)C2=O)cc1 (configuration not stated)", "growth", "52.9% (inactive)"],
  ["O=S(=O)(Nc1ccc(OC(F)F)cc1)c1ccc(-c2cnc(C3CC3)o2)cc1", "growth", "102% (inactive)"],
  ["COc1ccc(C(=O)COc2ccc(/C=C3\\Oc4ccc(OC)cc4C3=O)cc2)cc1", "growth", "119% (inactive)"],
  ["CC1(C)CC[C@]2(C(=O)Nc3ccccn3)CC[C@]3(C)C(=CC[C@@H]4[C@@]5(C)C/C(=C/c6cccnc6)C(=O)C(C)(C)[C@@H]5CC[C@]43C)[C@H]2C1", "growth", "68.9% (inactive)"],
  ["Oc1cccc2ccc(N/N=C/c3cc(CN4CCOCC4)c(O)c4ncccc34)nc12", "growth", "23% (inactive)"],
  ["OCCN1CCN(c2nc(Nc3ccc(-c4nc5ccccc5[nH]4)cc3)c3cn[nH]c3n2)CC1", "growth", "-97.2% (active)"],
  ["Cc1ccc(O)c(N2C(=NCc3ccco3)NS(=O)(=O)c3cnccc32)c1", "growth", "124% (inactive)"],
  ["O=C(Oc1cccnc1)c1ccsc1Nc1ccnc(C(F)(F)F)c1", "growth", "94.8% (inactive)"],
  ["O=C1c2cc3c(cc2-c2c1c1ccc(F)cc1c(=O)n2C[C@H](O)[C@H](O)[C@H](O)CO)OCO3", "growth", "-25.7% (active)"],
  ["CNC(=O)c1cc(Oc2ccc(NC(=O)Nc3ccc(Cl)c(SC)c3)c(F)c2)ccn1", "growth", "55.3% (inactive)"],
  ["O=C1Nc2ccc(Br)cc2C12Oc1ccccc1C1CC(c3ccc(F)cc3)=NN12 (configuration not stated)", "growth", "121% (inactive)"],
  ["CCCCC[C@H]1C/C=C2/C(=O)C=C[C@@H]2C/C=C\\CCCC(=O)O1", "growth", "-59.4% (active)"],
  ["COc1ccc(Nc2c3c4c(cccc4[nH]c2=O)C(=O)c2ccccc2-3)cc1", "growth", "28.6% (inactive)"],
  ["O=C(CCl)Oc1ccc(-c2ccccc2)c(Br)c1", "growth", "105% (inactive)"],
  ["Clc1ccc2c(NCCNc3nc(N4CCOCC4)nc4ccccc34)ccnc2c1", "growth", "-88.6% (active)"],
  ["COc1ccc(-c2nc(SCC(=O)Nc3ccc(C(=O)/C=C/c4ccc(Cl)cc4)cc3)[nH]c(=O)c2C#N)cc1", "growth", "102% (inactive)"],
  ["COc1ccc(-n2nc(C)c3c(Oc4ccc(NC(=O)Nc5c(Cl)cccc5Cl)cc4)ncnc32)cc1", "growth", "110% (inactive)"],
  ["O=S(=O)(Nc1ccc(Cl)c(F)c1)c1ccc(-c2cnc(C3CC3)o2)cc1", "growth", "45.5% (inactive)"],
  ["O=C(NCCN1CCOCC1)Nc1ccc(-c2cc3c(Nc4ccc(Oc5cccc(C(F)(F)F)c5)c(Cl)c4)ncnc3s2)cc1", "growth", "49.8% (inactive)"],
  ["O=C(/C=C/c1cccc(Cl)c1)c1ccc(O)c(CN2CCN(c3cc4c(cc3F)c(=O)c(C(=O)O)cn4C3CC3)CC2)c1", "growth", "48.1% (inactive)"],
  ["CC[N+](CC)=c1sc2c(s1)C(c1ccc(Cl)cc1)Oc1ccc(Cl)cc1-2 (configuration not stated)", "growth", "44% (inactive)"],
  ["COc1cc2c(cc1-c1c(C)noc1C)ncc1nc(C3CCOCC3)n([C@@H](C)COC(F)F)c12", "growth", "26.6% (inactive)"],
  ["CC(C)n1c(/C=C/[C@@H](O)C[C@@H](O)CC(=O)O)c(-c2ccc(F)cc2)c2ccccc21", "growth", "88.7% (inactive)"],
  ["Cc1nn(-c2cc(=O)[nH]c3ccc(Cl)cc23)c(N)c1C#N", "growth", "133% (inactive)"],
  ["CC(C)(CCCN=C(N)Nc1ccc(Cl)cc1)c1ccc(F)cc1", "growth", "72.4% (inactive)"],
  ["CC1=C[C@H]2c3c(c(O)c(O)c4oc5c(C)cccc5c(=O)c34)[C@H](c3cc(O)c(O)c4oc5c(C)cccc5c(=O)c34)[C@H]2C(C)(C)C1", "growth", "31.2% (inactive)"],
  ["COc1ccc(CN2c3ccccc3Sc3ccccc32)cc1O", "growth", "58.3% (inactive)"],
  ["N#Cc1nnn(-c2ccc(S(N)(=O)=O)cc2)c1NC(=O)CCl", "growth", "96.4% (inactive)"],
  ["O=c1c2c3c(sc2nc(N/N=C/c2cn(-c4ccccc4)nc2-c2ccc(Cl)cc2)n1Cc1ccccc1)CCCC3", "growth", "129% (inactive)"],
  ["COc1cccc(-c2nc(SCC(=O)Nc3ccc(C(=O)/C=C/c4ccc(OC)c(OC)c4)cc3)[nH]c(=O)c2C#N)c1", "growth", "109% (inactive)"],
  ["NC(=O)c1cc(Cl)ccc1NC(=O)/C=C/c1ccccc1", "growth", "45.1% (inactive)"],
  ["CCCCn1c(-c2ccc(C(=O)O/N=C(\\N)c3ccc4c(c3)OCO4)cc2)nc(-c2ccccc2)c1-c1ccccc1", "growth", "37.1% (inactive)"],
  ["C=CC(=O)Nc1cccc(-c2nc(SC)nc(Nc3ccccc3OC)c2C#N)c1", "growth", "36.1% (inactive)"],
  ["O=[N+]([O-])c1ccc2c(c1)Cc1cc(F)ccc1-2", "growth", "96.8% (inactive)"],
  ["Cn1ccnc1C(=O)/C=C/c1ccc(CC(=O)Nc2ccccc2)cc1", "growth", "17.6% (inactive)"],
  ["COc1ccc(-n2nc(C)c3c(Nc4ccc(NC(=O)Nc5cccc(C(F)(F)F)c5)cc4)ncnc32)cc1", "growth", "10.7% (inactive)"]
]}
